B1: MLH1 (parent)
chain: YNIATRRKALKNPSEEYGKILEVV

Variants of: B1
Test: protein stability index of a GFP-peptide fusion (GPS, HEK-293T) (PSI 1-6); higher = more stable;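 also: lentivirally expressed fusions sorted by FACS into six bins by GFP to DsRed ratio, PSI derived from sequencing read proportions per bin multiplied by bin number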
Conditions: c terminus: a fixed tail appended
MEASURED_QUANTITY: protein stability index
Give a plain numeric answer without units written out.

# count of solved cases: 5
{"columns": ["SEQUENCE_CHAIN", "protein stability index"],
 "data": [
  ["YNCATRRKALKNPSEEYGKILEVV", 2.69],
  ["YNIATRRKALKNPSEEYGWILEVV", 1.65],
  ["YNIATRRKALKNPSFEYGKILEVV", 2.29],
  ["YNIATRRKALKNPSEEYVKILEVV", 1.95],
  ["YNIATRRKALSNPSEEYGKILEVV", 2.48]
]}

Consider YMIATRRKALKNPSEEYGKILEVV . Its measured protein stability index is 1.85

For record YNIATRRKALKNPSEELGKILEVV the listed protein stability index is 2.63

Kindly note the recorded protein stability index for YNIATRRKALKNPSEEEGKILEVV , which is 4.04

Measured protein stability index, YNIATRRKALKNWSEEYGKILEVV : 2.66

Entry YNIATRRKALKNPSEEYGKQLEVV — recorded protein stability index = 3.8

Memo: YNIATWRKALKNPSEEYGKILEVV , reported protein stability index: 1.96

Record YNIAVRRKALKNPSEEYGKILEVV , field protein stability index: 3.09

// YNIATRWKALKNPSEEYGKILEVV : protein stability index value = 1.78

Lab note: YNIATRRKALKNPSWEYGKILEVV gave protein stability index of 1.78

protein stability index measured on YNIATNRKALKNPSEEYGKILEVV = 2.85

Record YNIATRRKALKNPSEENGKILEVV . Reported protein stability index: 4.08
